The listing below reports IC50 for compounds tested on UniProt:P08170.
Sequence (P08170 whole entry): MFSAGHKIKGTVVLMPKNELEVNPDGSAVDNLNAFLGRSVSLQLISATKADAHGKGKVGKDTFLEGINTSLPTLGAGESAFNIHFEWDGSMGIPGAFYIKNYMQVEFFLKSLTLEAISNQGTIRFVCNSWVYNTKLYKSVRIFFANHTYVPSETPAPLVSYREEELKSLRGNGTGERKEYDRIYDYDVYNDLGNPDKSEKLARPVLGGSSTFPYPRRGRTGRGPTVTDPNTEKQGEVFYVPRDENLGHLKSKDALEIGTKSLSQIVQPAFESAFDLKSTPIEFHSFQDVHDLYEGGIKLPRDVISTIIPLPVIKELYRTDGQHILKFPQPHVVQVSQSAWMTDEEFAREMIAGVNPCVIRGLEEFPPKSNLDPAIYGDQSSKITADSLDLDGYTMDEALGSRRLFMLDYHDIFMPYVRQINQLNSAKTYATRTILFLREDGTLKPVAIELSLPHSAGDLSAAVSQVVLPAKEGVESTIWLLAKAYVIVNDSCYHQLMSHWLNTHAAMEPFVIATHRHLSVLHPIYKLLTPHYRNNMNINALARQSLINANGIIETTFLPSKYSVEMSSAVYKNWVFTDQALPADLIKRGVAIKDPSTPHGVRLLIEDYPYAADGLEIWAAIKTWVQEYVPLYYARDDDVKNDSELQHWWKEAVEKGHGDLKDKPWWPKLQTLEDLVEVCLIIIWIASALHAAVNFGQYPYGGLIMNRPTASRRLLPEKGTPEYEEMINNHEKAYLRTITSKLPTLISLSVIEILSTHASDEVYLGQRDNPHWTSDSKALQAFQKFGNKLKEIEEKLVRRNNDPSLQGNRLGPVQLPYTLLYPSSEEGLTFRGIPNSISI
# value in µM; strip the unit string

NNC(=S)N/N=C/c1ccccc1 : 22.5

As a next step, examine the compound that follows.
Q. Any idea what IC50 came out for SC1=NC(c2ccccc2)=CC(c2ccccc2)N1 (centres unmarked) on UniProt:P08170?
A. 19
